- measured on: recombinant DYRK1A kinase (Homo sapiens (Human))
- protocol text: DYRK1A kinase assay (Ser/Thr 18 peptide Z-lyte FRET assay)
- test context: DYRK1A kinase activity; 15 μM ATP, 1 h room temperature; method text calls the value IC50
property measured: EC50 (nM)

The following compounds have reported results that may help.
>  <entry smiles>
COc1nc(NC2CCC(F)(F)CC2)nc2[nH]cc(-c3ccc4nnn(C)c4c3)c12

>  <unit of measure>
nM

>  <EC50>
83.9

$$$$
>  <entry smiles>
CC(F)(F)CNc1ncc2c(-c3ccc4nccn4n3)c[nH]c2n1

>  <unit of measure>
nM

>  <EC50>
18.6

$$$$

a: CO[C@H]1C[C@@H](Nc2ncc3c(-c4ccc5nccn5n4)c[nH]c3n2)C1
b: C[C@@H](Nc1ncc2c(-c3ccc4nnn(C)c4c3)c[nH]c2n1)C1CC1
c: FC(F)O[C@H]1CC[C@H](Nc2ncc3c(-c4ccn5nccc5c4)c[nH]c3n2)CC1
[in] hey, can you rank those compounds up there by EC50? biggest number first please The reply should contain the labels ordered as requested.
[out] c, b, a
